Ref: paper PMC9088073

# Target Or System: SARS-CoV-2 nsp13 ATPase (Severe acute respiratory syndrome coronavirus 2, UniProt P0DTD1)
# Type: biochemical
# Assay Setup: read-out: helicase ATPase IC50

Compound	IC50
C=CCn1c(S)nnc1CSc1ccccc1[N+](=O)[O-] [SSYA10-001, reference compound]	> 3 µM

----------
// reported pIC50 per item
# Target Or System: SARS-CoV-2 nsp13 helicase (Severe acute respiratory syndrome coronavirus 2, UniProt P0DTD1)
pIC50: −log10 of the molar value.
Assay Metric: pIC50

Molecule	Assay Metric	Bound Operator	Experimental Result
CCCOc1ccc(-c2cc(OCCN3CCCCC3)c3c(OC)ccc(OC)c3n2)cc1 [Compound 7k]	pIC50	=	5.85
CCCOc1ccc(-c2cc(OCCN3CCN(Cc4ccccc4)CC3)c3c(OC)cc(OC)cc3n2)cc1 [Compound 6f]	pIC50	<	4.52
CCCOc1ccc(-c2cc(OCCN3CCc4cc(OC)c(OC)cc4C3)c3c(OC)cc(OC)cc3n2)cc1 [Compound 6g]	pIC50	=	6.38
CCCOc1ccc(-c2cc(OCCN3CCCC3)c3cc(OC)cc(OC)c3n2)cc1 [Compound 9j]	pIC50	<	4.52
